# Procedure Text: Antioxidant activity assessed as ABTS free radical scavenging activity after 1 min
# Format: functional
I'd appreciate it if you marked entries TRUE when IC50 is lower than 20 µg/mL and FALSE when it is not.

COc1cc2c(c(OC)c1O)-c1ccc(O)cc1CC2	TRUE

Continue with the next compound.
Problem: I'd appreciate it if you could check whether `COc1cc2ccc3cc(O)ccc3c2c(OC)c1O` has IC50 smaller than 20 µg/mL.
Solution: TRUE

---

# Test system: THP-1
# Procedure Text: Antiinflammatory activity in human THP1 cells assessed as inhibition of LPS-stimulated TNF-alpha release at 100 uM incubated for 1 hr prior to LPS challenge measured after 24 hrs by sandwich ELISA relative to untreated control
# Format: functional
Give Condition met when the value for inhibition at 100 µM is at least 80%. Give Condition not met when it is less.

Worked examples, 4 compounds total:
COc1ccc2c(c1O)CCc1cc(O)cc(OC)c1-2	Condition met
c1ccc2c(c1)ccc1ccccc12	Condition not met
c1ccc2c(c1)CCc1ccccc1-2	Condition not met
COc1cc(O)c2c(c1)CCc1c-2ccc(OC)c1O	Condition met

Problem: hey, is inhibition at 100 µM for this one >= 80%? `COc1cc2ccc3cc(O)ccc3c2c(OC)c1O`
Solution: Condition not met

Problem: hey, is inhibition at 100 µM for this one >= 80%? `COc1cc(/C=C/C(=O)CC(=O)/C=C/c2ccc(O)c(OC)c2)ccc1O`
Solution: Condition met

Problem: hey, is inhibition at 100 µM for this one >= 80%? `COc1cc2c(c(OC)c1O)-c1ccc(O)cc1CC2`
Solution: Condition not met
